measuredTarget: HLA-A2.1 MHC class I molecules on T2 cells (human)
testDescription: T2 cells pulsed with peptide, anti-HLA-A2.1 flow cytometry; Brefeldin A treatment: 4 hr
measurementType: binding score (HLA-A2.1 fluorescence on T2 cells)

[
  {
    "binder": "SLFLGILSV (Synthetic nonamer) [CD20 peptide SLFLGILSV (SEQ ID NO: 6)]",
    "valueReported": 762
  },
  {
    "binder": "LLFLTPMEV (Synthetic nonamer) [CD19 peptide LLFLTPMEV (SEQ ID NO: 3)]",
    "valueReported": 880
  },
  {
    "binder": "SLNFIRAHT (Synthetic nonamer) [CD20 peptide SLNFIRAHT (SEQ ID NO: 9)]",
    "valueReported": 180
  },
  {
    "binder": "LLFFLLFLV [CD19 peptide LLFFLLFLV (SEQ ID NO: 5)]",
    "valueReported": 163
  },
  {
    "binder": "AISGMILSI (Synthetic nonamer) [CD20 peptide AISGMILSI (SEQ ID NO: 7)]",
    "valueReported": 165
  },
  {
    "binder": "LKMESLNFI (Synthetic nonamer) [CD20 peptide LKMESLNFI (SEQ ID NO: 10)]",
    "valueReported": 227
  },
  {
    "binder": "TLAYLIFCL (Synthetic nonamer) [CD19 peptide TLAYLIFCL (SEQ ID NO: 2)]",
    "valueReported": 513
  },
  {
    "binder": "FIRAHTPYI (Synthetic nonamer) [CD20 peptide FIRAHTPYI (SEQ ID NO: 8)]",
    "valueReported": 192
  },
  {
    "binder": "KLMSPKLYV (Synthetic nonamer) [CD19 peptide KLMSPKLYV (SEQ ID NO: 4)]",
    "valueReported": 796
  },
  {
    "binder": "SHFLKMESL (Synthetic nonamer) [CD20 peptide SHFLKMESL (SEQ ID NO: 11)]",
    "valueReported": 199
  },
  {
    "binder": "RLLFFLLFL (Synthetic nonamer) [CD19 peptide RLLFFLLFL (SEQ ID NO: 1)]",
    "valueReported": 174
  }
]

Cited source for all entries: patent US20050048071A1
